The reported numbers originate from DBAASP.

# Test system: Escherichia coli K88
Endpoint: MIC

In: Lab note: need MIC with Escherichia coli K88 for entry CC[C@H](C)[C@H](N)C(=O)N[C@@H](Cc1cnc[nH]1)C(=O)N[C@@H](Cc1cnc[nH]1)C(=O)N[C@H](C(=O)N[C@@H](Cc1cnc[nH]1)C(=O)N[C@@H](Cc1cnc[nH]1)C(=O)N[C@H](C(N)=O)[C@@H](C)CC)[C@@H](C)CC , please look it up.
Out: ≥ 64 µM

---

Below, each entry is listed with its recorded MIC.
# Tested on: Acinetobacter baumannii
// return numeric value only (unit: µM, not printed)

Compound	Target Or Test System	MIC [µM]
CC[C@H](C)[C@H](NC(=O)[C@H](Cc1c[nH]c2ccccc12)NC(=O)[C@H](CCCCN)NC(=O)[C@H](CC(C)C)NC(=O)[C@@H](NC(=O)[C@H](CCCCN)NC(=O)CNC(=O)[C@@H](NC(=O)[C@H](CCCCN)NC(=O)[C@H](Cc1c[nH]c2ccccc12)NC(=O)[C@H](CC(C)C)NC(=O)[C@@H](N)CCCN=C(N)N)[C@@H](C)CC)C(C)C)C(N)=O [RLWKIGKVLKWI]	Acinetobacter baumannii	2

In: Looking for the measured MIC of CC[C@H](C)[C@H](NC(=O)[C@H](CCCN=C(N)N)NC(=O)[C@@H](NC(=O)[C@H](CCCN=C(N)N)NC(=O)[C@H](Cc1c[nH]c2ccccc12)NC(=O)[C@H](CCC(N)=O)NC(=O)[C@@H](N)C(C)C)[C@@H](C)CC)C(=O)N[C@@H](C)C(=O)N[C@H](C(=O)N[C@H](C(=O)N[C@@H](CCCN=C(N)N)C(=O)N[C@@H](C)C(=O)O)[C@@H](C)CC)C(C)C [VQWRIRIAVIRA] , can you help?
Out: 21.6

---

# System: Micrococcus luteus A270
Below, each entry is listed with its recorded MIC.
Answers without a unit are incomplete; give the number and then its unit.

// below: answered molecules
Structure	MIC
C[C@@H](O)[C@H](N)C(=O)N[C@@H](CO)C(=O)N[C@@H](CCCCN)C(=O)N[C@@H](Cc1ccc(O)cc1)C(=O)N[C@@H](CCCN=C(N)N)C(=O)O	9 µM
CC(C)C[C@H](NC(=O)[C@H](C)NC(=O)CNC(=O)[C@H](CC(C)C)NC(=O)[C@@H](N)Cc1ccccc1)C(=O)N[C@@H](Cc1c[nH]c2ccccc12)C(=O)N[C@@H](CC(N)=O)C(=O)N[C@H](C(=O)N[C@@H](C)C(=O)N[C@@H](CCCCN)C(=O)N[C@@H](CO)C(=O)N[C@@H](CC(C)C)C(=O)N[C@@H](Cc1ccccc1)C(N)=O)C(C)C	0.8 µM

In: Lab note: need MIC with Micrococcus luteus A270 for entry CC(C)C[C@H](N)C(=O)N[C@@H](CO)C(=O)N[C@@H](Cc1ccccc1)C(=O)N1CCC[C@H]1C(=O)N[C@H](C(=O)N[C@H](C(=O)N[C@@H](CCCCN)C(=O)N[C@H](C(=O)N[C@@H](Cc1ccc(O)cc1)C(=O)N[C@@H](Cc1ccccc1)C(=O)N1CCC[C@H]1C(=O)N[C@@H](Cc1cnc[nH]1)C(=O)N[C@@H](Cc1ccccc1)C(=O)O)[C@@H](C)O)[C@@H](C)O)[C@@H](C)O , please look it up.
Out: 5 µM
